Test system: RIVA
PROTOCOL: growth inhibition by drug alone (1 - RLU/untreated control) (fraction); higher = stronger inhibition
EXPERIMENTAL_CONTEXT: 100 nM; time (day): 4; 177Lu-lilotomab satetraxetan 0 ug/ml
Binning rule for recorded growth inhibition by drug alone: bin 1: < -0.2; bin 2: ≥ -0.2 and < 0.02; bin 3: ≥ 0.02

Illustrative cases are given below, each with its answer.
COMPOUND	CLASSIFICATION
C[C@@H]1C[C@H]2[C@@H]3CCC4=CC(=O)C=C[C@]4(C)[C@@]3(F)[C@@H](O)C[C@]2(C)[C@@]1(O)C(=O)CO	bin 2
CCCC(=O)[O-].[Na+] [Sodium butyrate]	bin 1
COc1cc2nc(N3CCCN(C)CC3)nc(NC3CCN(Cc4ccccc4)CC3)c2cc1OC	bin 3
C[C@]1(O)C[C@@H](c2nc(-c3ccc4ccc(-c5ccccc5)nc4c3)c3c(N)nccn32)C1	bin 1
Nc1[nH]nc2nnc(-c3c(-c4ccccc4)nn4ccccc34)cc12	bin 2

Into which bin does this compound go? Cc1ccc(NC(=O)c2cccc(C(C)(C)C#N)c2)cc1Nc1ccc2ncn(C)c(=O)c2c1
bin 1

Please report the category associated with COc1ccc(CNC(=O)Nc2ncc([N+](=O)[O-])s2)cc1 , nothing else.
bin 3

Where would O=C1NC(=O)/C(=C\c2cccc(C(F)(F)F)c2)S1 land among the classes by reported growth inhibition by drug alone?
bin 1

Input CN(C)Cc1ccc(-c2nc3cccc4c3n2CCNC4=O)cc1 ; output its category
bin 3

Returns: class label. Input: O=C(Nc1cccc(Cl)c1)Nc1ncc(CCNc2ncnc3ccsc23)s1
bin 3

Sort into band: C[C@]12CC[C@H](O)CC1=CC[C@@H]1[C@@H]2CC[C@]2(C)C(c3cccnc3)=CC[C@@H]12
bin 1

Exercise: read the entry CC(=O)O[C@]1(C(C)=O)CC[C@H]2[C@@H]3C=C(C)C4=CC(=O)CC[C@]4(C)[C@H]3CC[C@@]21C [Megestrol Acetate] and state which class it falls under.
bin 3

Quick check: band for CCCCCCCc1ccc(CCc2cccc(O)c2C(=O)O)cc1
bin 2

Entry CC(=O)c1c(C)c2cnc(Nc3ccc(N4CCNCC4)cn3)nc2n(C2CCCC2)c1=O belongs to which category?
bin 2

Bin? Cc1ccc(C(=O)N(CCCN)[C@@H](c2nc3cc(Cl)ccc3c(=O)n2Cc2ccccc2)C(C)C)cc1
bin 3

Categorize the following entry: CCN(CC)CCNC(=O)c1c(C)[nH]c(/C=C2\C(=O)Nc3ccc(F)cc32)c1C [Sunitinib Malate (Sutent)]
bin 1

For this compound, which bin applies? Cn1cnc2c(F)c(Nc3ccc(Br)cc3Cl)c(C(=O)NOCCO)cc21 [AZD6244 (Selumetinib)]
bin 1

Returns: class label. Input: CN1CCC(CNc2ccc3ncc(-c4cccc(OC(F)(F)F)c4)n3n2)CC1 [SGI-1776 free base]
bin 1
